Target: NPC intracellular cholesterol transporter 1 (Homo sapiens, UniProt O15118, I1061T)
Sequence (O15118 whole entry I1061T): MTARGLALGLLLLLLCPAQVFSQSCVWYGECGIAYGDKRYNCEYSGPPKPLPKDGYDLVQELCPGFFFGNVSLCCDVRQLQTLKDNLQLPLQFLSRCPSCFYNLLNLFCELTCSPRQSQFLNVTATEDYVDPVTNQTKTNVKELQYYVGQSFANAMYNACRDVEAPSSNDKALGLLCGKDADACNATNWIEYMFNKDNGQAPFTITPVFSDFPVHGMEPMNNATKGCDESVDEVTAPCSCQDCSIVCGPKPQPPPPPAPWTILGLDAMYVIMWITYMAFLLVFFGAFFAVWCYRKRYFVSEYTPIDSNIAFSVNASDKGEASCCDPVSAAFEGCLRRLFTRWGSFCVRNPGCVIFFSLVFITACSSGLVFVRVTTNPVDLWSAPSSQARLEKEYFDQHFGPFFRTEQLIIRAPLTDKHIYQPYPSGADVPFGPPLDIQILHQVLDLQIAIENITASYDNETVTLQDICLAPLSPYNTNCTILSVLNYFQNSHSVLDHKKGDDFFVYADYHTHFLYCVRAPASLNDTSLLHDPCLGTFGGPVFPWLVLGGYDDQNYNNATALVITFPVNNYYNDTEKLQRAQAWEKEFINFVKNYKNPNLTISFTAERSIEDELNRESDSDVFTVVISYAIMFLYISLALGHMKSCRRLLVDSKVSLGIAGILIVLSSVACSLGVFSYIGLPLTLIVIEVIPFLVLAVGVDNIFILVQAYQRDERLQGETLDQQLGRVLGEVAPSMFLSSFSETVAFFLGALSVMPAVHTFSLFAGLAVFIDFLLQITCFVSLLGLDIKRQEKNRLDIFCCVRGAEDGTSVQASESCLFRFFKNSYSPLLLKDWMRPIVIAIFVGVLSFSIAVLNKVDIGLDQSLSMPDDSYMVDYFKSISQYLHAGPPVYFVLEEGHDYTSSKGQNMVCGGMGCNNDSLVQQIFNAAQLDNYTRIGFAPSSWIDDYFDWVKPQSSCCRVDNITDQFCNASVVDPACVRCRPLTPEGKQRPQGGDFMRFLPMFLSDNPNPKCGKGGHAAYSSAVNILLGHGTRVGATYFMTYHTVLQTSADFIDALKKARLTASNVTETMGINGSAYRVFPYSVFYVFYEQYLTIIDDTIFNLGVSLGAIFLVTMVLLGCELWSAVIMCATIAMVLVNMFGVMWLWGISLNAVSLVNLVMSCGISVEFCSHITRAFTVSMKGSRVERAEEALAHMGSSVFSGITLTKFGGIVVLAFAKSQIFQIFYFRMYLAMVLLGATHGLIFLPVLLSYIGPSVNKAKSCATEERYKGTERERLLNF
Assay: Chaperone activity at FLAG/GFP-tagged NPC1 I1061T mutant (unknown origin) expressed in HEK293 cells assessed as increase in localization of protein mutant in late endosomes after 24 hrs by Hoechst 33342 staining based fluorescence microscopic analysis
Format: cell-based
Details: read-out: EC50
metricName: EC50 (µM)

Known EC50 results, listed for orientation:
> print(dat)
                                 testsmiles  endpointvalue
1      CCCCn1c(=O)c2ccccc2c2cc(C(N)=O)ccc21             11
2       CCCn1c(=O)c2ccccc2c2cc(C(N)=O)ccc21             19
3     CCCCCn1c(=O)c2ccccc2c2cc(C(N)=O)ccc21            4.2
4     CCCCn1c(=O)c2ccccc2c2cc(NC(C)=O)ccc21             14
5  C[Si](C)(C)CCOCn1c(=O)c2ccccc2c2cc(C(N)=O)ccc21             16

a = NC(=O)c1ccc2c(c1)c1ccccc1c(=O)n2CC1CCCCC1
b = CCCCn1c(=O)c2ccccc2c2cc(NS(C)(=O)=O)ccc21
c = CCCCn1c(=O)c2c(c3cc(C(N)=O)ccc31)CCCC2
d = CC(C)CCC[C@@H](C)[C@H]1CC[C@H]2[C@@H]3C[C@@H](O)[C@@]4(O)C[C@@H](OCC(=O)N5CCOCC5)CC[C@]4(C)[C@H]3CC[C@]12C
Lookup: Reorder the items by EC50, least to greatest. Could you list the labels in the order requested?
Found: d, a, b, c
(d: 0.15 µM, a: 3.6 µM, b: 14 µM, c: 30 µM)
